Target: T1, SMN (aa 80–170) (human, UniProt Q16637 80-170)
T1 construct: Survival motor neuron protein (SMN), human, residues 80-170, covers the Tudor domain; cloned into the pET28-MHL vector; also called Survival motor neuron protein; source: E. coli BL21 (DE3), purified (Ni-NTA, size exclusion chromatography)
T1 sequence (Q16637 80-170): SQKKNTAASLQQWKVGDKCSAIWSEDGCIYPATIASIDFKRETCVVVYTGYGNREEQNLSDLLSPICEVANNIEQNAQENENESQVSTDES
Assay: fluorescence polarisation; fluorescein-labeled peptides; 20 mM Tris pH 7.5, 50 mM NaCl, 1 mM DTT, 0.01% Triton X-100; 25°C; one-site binding model; Kd the average of three independent measurements
Details: both partners purified
pKd: −log10 of the molar value. Square brackets hold non-standard residues; d marks the D form. Ends that are not written are not given here. Arg(Me2s) = CN=C(NC)NCCC[C@H](N)C(=O)O; Arg(Me) = CNC(=N)NCCC[C@H](N)C(=O)O
attribute-measured: pKd

INSERT INTO assay_data (binder, test_result) VALUES
  ('PPGM[Arg(Me2s)]PPPPG (also: fluorescein label, position not given here, PGM motif stretch of the splicing protein SmB; also called sDMA PGM motif peptide from SmB; source: synthetic peptide (Tufts University Core Services)) [PGM(SmB214SD)]', '< 3.40'),
  ('YPPG[Arg(Me2s)]GGPPP (also: fluorescein label, position not given here, PGM motif stretch of the splicing protein SmB; also called sDMA PGM motif peptide from SmB; source: synthetic peptide (Tufts University Core Services)) [PGM(SmB165SD)]', '< 3.52');

Please examine the following record next.
Please report the recorded pKd for TG[Arg(Me)]ARARARGRARGQE (also: fluorescein label, position not given here, N-terminal GAR motif stretch of PIWIL1, R4 monomethylated; also called monomethylated PIWIL1 peptide; source: synthetic peptide (Tufts University Core Services)) [PIWIL1-R4me1] .
< 3.82
